Measured values drawn from ChEMBL document CHEMBL1140929 for this set.

system: Kidney; experiment: Biodistribution in NMRI mouse kidney assessed per gram of tissue at 3.7 MBq/mL, iv after 2 mins by gamma counting; assay type: ADME, organism-based; conditions: in vivo
Attribute: Drug uptake

- COMPOUND SMILES: "[11CH3]Nc1ccc(-c2nc3ccc(O)cc3s2)cc1"
  Drug uptake (% ID/g): 19.9
- COMPOUND SMILES: "COc1ccc2nc(-c3ccc([18F])cc3)sc2c1"
  Drug uptake (% ID/g): 13.9
- COMPOUND SMILES: "Cc1ccc2nc(-c3ccc([18F])cc3)sc2c1"
  Drug uptake (% ID/g): 9.3
- COMPOUND SMILES: "Oc1ccc2nc(-c3ccc([18F])cc3)sc2c1"
  Drug uptake (% ID/g): 12.6

---

test system: Kidney; assay: Biodistribution in NMRI mouse kidney assessed per gram of tissue at 3.7 MBq/mL, iv after 60 mins by gamma counting; type: ADME, organism-based; conditions: in vivo, 1 h

- COMPOUND SMILES: "[11CH3]Nc1ccc(-c2nc3ccc(O)cc3s2)cc1"
  EXPERIMENTAL TARGET: "Kidney"
  Drug uptake / % ID/g: 9.1
- COMPOUND SMILES: "Oc1ccc2nc(-c3ccc([18F])cc3)sc2c1"
  EXPERIMENTAL TARGET: "Kidney"
  Drug uptake / % ID/g: 11.8
- COMPOUND SMILES: "Cc1ccc2nc(-c3ccc([18F])cc3)sc2c1"
  EXPERIMENTAL TARGET: "Kidney"
  Drug uptake / % ID/g: 3.6
- COMPOUND SMILES: "COc1ccc2nc(-c3ccc([18F])cc3)sc2c1"
  EXPERIMENTAL TARGET: "Kidney"
  Drug uptake / % ID/g: 14.2

---

system: Cerebellum; test: Biodistribution in NMRI mouse cerebellum assessed per gram of tissue at 3.7 MBq/mL, iv after 2 mins by gamma counting; assay type: ADME, organism-based; conditions: in vivo

- COMPOUND SMILES: "Cc1ccc2nc(-c3ccc([18F])cc3)sc2c1"
  Drug uptake, % ID/g: 5.99
- COMPOUND SMILES: "COc1ccc2nc(-c3ccc([18F])cc3)sc2c1"
  Drug uptake, % ID/g: 5.12
- COMPOUND SMILES: "[11CH3]Nc1ccc(-c2nc3ccc(O)cc3s2)cc1"
  Drug uptake, % ID/g: 1.6
- COMPOUND SMILES: "Oc1ccc2nc(-c3ccc([18F])cc3)sc2c1"
  Drug uptake, % ID/g: 5.13

---

assay: Biodistribution in NMRI mouse urine at 3.7 MBq/mL, iv after 2 mins by gamma counting; format: ADME, organism-based; conditions: in vivo
Reported Drug uptake values for the following molecules.

- COMPOUND SMILES: "Cc1ccc2nc(-c3ccc([18F])cc3)sc2c1"
  Drug uptake [%ID]: 0.2
- COMPOUND SMILES: "COc1ccc2nc(-c3ccc([18F])cc3)sc2c1"
  Drug uptake [%ID]: 0.2
- COMPOUND SMILES: "[11CH3]Nc1ccc(-c2nc3ccc(O)cc3s2)cc1"
  Drug uptake [%ID]: 0.2
- COMPOUND SMILES: "Oc1ccc2nc(-c3ccc([18F])cc3)sc2c1"
  Drug uptake [%ID]: 0.1
